Assay: Metabolic stability in dog liver microsomes
Assay type: in vitro ADME
Details: Beagle
Threshold 20 min: half-life at 1 μM strictly smaller gives YES, otherwise NO.

- compound: "CC1(C)C(=O)C(C#N)=C[C@]2(C)C3=CC(=O)[C@@H]4[C@@H]5C[C@@](C)(N6CC(O)C6)CC[C@]5(C)CC[C@@]4(C)[C@]3(C)CC[C@@H]12"
  labelClass: "NO"
- compound: "CC1(C)C(=O)C(C#N)=C[C@]2(C)C3=CC(=O)[C@@H]4[C@@H]5C[C@@](C)(C#N)CC[C@]5(C)CC[C@@]4(C)[C@]3(C)CC[C@@H]12"
  labelClass: "YES"
- compound: "CNC(=NC#N)NC[C@]12CCC(C)(C)C[C@H]1[C@H]1C(=O)C=C3[C@@]4(C)C=C(C#N)C(=O)C(C)(C)[C@@H]4CC[C@@]3(C)[C@]1(C)CC2"
  labelClass: "NO"
- compound: "COC(=O)[C@]12CCC(C)(C)C[C@H]1[C@H]1C(=O)C=C3[C@@]4(C)C=C(C#N)C(=O)C(C)(C)[C@@H]4CC[C@@]3(C)[C@]1(C)CC2 [Control, reference compound]"
  labelClass: "NO"
